Reference for the values: the supplement of paper PMC7125110

Answer each item with its documented self-cleavage kobs at 160 uM GlcN6P.
B1: glmS ribozyme (parent)
chain: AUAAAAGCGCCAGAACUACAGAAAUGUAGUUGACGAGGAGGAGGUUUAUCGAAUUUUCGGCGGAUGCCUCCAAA

- Variants of: B1
- protocol summary: self-cleavage kobs at 160 uM GlcN6P; higher = faster cleavage; RNA array
- test conditions: with glucosamine-6-phosphate
Fewer inactive variants are shown than the library holds.
Report the figure in s⁻¹ without appending any unit label.

The value of self-cleavage kobs at 160 uM GlcN6P measured for the variant AUAAAAGCGCCAGAACUACAGAAAUGUAGUUGACGAGGUGGAUGUUUAUCGAAUUUUCGGCGGAUGCCUCCAAA [A39U G43U] turned out to be 5.96e-05

The value of self-cleavage kobs at 160 uM GlcN6P measured for the variant AUAAAAGCGCCAGACCUACAGAAAUGUAGUUGACGAGGAGGAGGUUAAUCGAAUUUUCGGCGGAUGCCUCCAAA [A15C U47A] turned out to be 0.000266

The value of self-cleavage kobs at 160 uM GlcN6P measured for the variant AUAAAAGCGCCAGAACUACAGAAAUGUAGUUGACGAGGAGGAGGUUUAUCGAAUUUUCGGCGGAAGCCUCGAAA [U65A C71G] turned out to be 4.31e-05

The value of self-cleavage kobs at 160 uM GlcN6P measured for the variant AUAAAAGCGCCAGAACUACAGAAAUGUAGGUGACGAGGAGGAGGUUUAUCGGAUUUUCGGCGGAUGCCUCCAAA [U30G A52G] turned out to be 4.03e-05
